These entries and their values trace back to patent US20240228458A1.

# Tested on: Ba/F3 cells expressing L858R/T790M/C797S (EGFR-LTC)
# protocolText: Growth inhibition (GI50) of Ba/F3 cells expressing L858R/T790M/C797S (EGFR-LTC), Celltiter glo
# Type: cell-based
# studyConditions: Mus musculus, BaF3, 72 h
experimentalEndpoint: GI50

Form field GI50 for item COc1cc(N2CCC(N3CCCC(N(C)C)C3)CC2)c(C)cc1Nc1ncc(Br)c(Nc2cc3c(cc2NS(C)(=O)=O)CCO3)n1 (centres unmarked) on Ba/F3 cells expressing L858R/T790M/C797S (EGFR-LTC): 100 to 500 nM

Tested system Ba/F3 cells expressing L858R/T790M/C797S (EGFR-LTC); GI50 recorded for COc1cc(N2CCC(N3CCCC(N(C)C)C3)CC2)c(Br)cc1Nc1ncc(Br)c(Nc2cc3c(cc2NS(C)(=O)=O)CCO3)n1 (centres unmarked) was 1 to 25 nM

Reading of GI50 for COc1nc(N2CCCN(C)CC2)ccc1Nc1ncc(Br)c(Nc2cc3c(cc2NS(C)(=O)=O)CCO3)n1 with Ba/F3 cells expressing L858R/T790M/C797S (EGFR-LTC): 100 to 500 nM

Form field GI50 for item COc1cc(N2CCC(N3CCNCC3)CC2)c(C)cc1Nc1ncc(Cl)c(Nc2cc3c(cc2NS(C)(=O)=O)CCO3)n1 on Ba/F3 cells expressing L858R/T790M/C797S (EGFR-LTC): 25 to 100 nM

Considering COc1nc(N2CCC(F)(F)CC2)ccc1Nc1ncc(Br)c(Nc2ccc(F)cc2NS(C)(=O)=O)n1 , its GI50 with Ba/F3 cells expressing L858R/T790M/C797S (EGFR-LTC) was recorded as 2000 to 10000 nM

Here COc1cc(N2CCC(N3CCC(N(C)C)C3)CC2)c(Br)cc1Nc1ncc(Cl)c(Nc2cc3c(cc2NS(C)(=O)=O)CCO3)n1 (centres unmarked) was tested on Ba/F3 cells expressing L858R/T790M/C797S (EGFR-LTC), and its GI50 came to 25 to 100 nM

Bench note, Ba/F3 cells expressing L858R/T790M/C797S (EGFR-LTC): COc1cc(N2CCC(N3CCN(C)CC3)CC2)c(Cl)cc1Nc1ncc(Cl)c(Nc2ccc3c(c2)NCC3)n1 , GI50 reads > 10000 nM

The recorded GI50 with Ba/F3 cells expressing L858R/T790M/C797S (EGFR-LTC) for COc1cc(N2CCC(N3CCN(C)CC3)CC2)c(Cl)cc1Nc1ncc(Cl)c(Nc2cc(Cl)ccc2-c2cnn[nH]2)n1 was 25 to 100 nM

Simply: COc1nc(N2C[C@@H](C)N(C)[C@@H](C)C2)ccc1Nc1ncc(Cl)c(Nc2ccc3nccnc3c2NS(C)(=O)=O)n1 , Ba/F3 cells expressing L858R/T790M/C797S (EGFR-LTC), GI50 = 100 to 500 nM

Measured GI50 for this entry CN1CCN(C2CCN(c3ccc(Nc4ncc(Cl)c(Nc5cc(Cl)ccc5NS(C)(=O)=O)n4)cc3F)CC2)CC1 on Ba/F3 cells expressing L858R/T790M/C797S (EGFR-LTC): 100 to 500 nM

COc1cc(N2CCC(N3CCCC(N(C)C)C3)CC2)c(Cl)cc1Nc1ncc(Br)c(Nc2cc3c(cc2NS(C)(=O)=O)CCO3)n1 (centres unmarked) tested on Ba/F3 cells expressing L858R/T790M/C797S (EGFR-LTC) gave GI50: 25 to 100 nM

Response field GI50 (Ba/F3 cells expressing L858R/T790M/C797S (EGFR-LTC)) for item COc1nc(N2CCNCC2)ccc1Nc1ncc(Cl)c(Nc2ccc3nccnc3c2P(C)(C)=O)n1 : 500 to 2000 nM

The compound COc1cc(N2CCC(N3CCN(C)CC3)CC2)ccc1Nc1ncc(Cl)c(Nc2cc3c(cc2NS(C)(=O)=O)CCO3)n1 on Ba/F3 cells expressing L858R/T790M/C797S (EGFR-LTC): GI50 was 100 to 500 nM

Given the compound COc1cc(N2CCC(N3CCN(C)CC3)CC2)c(C)cc1Nc1ncc(Cl)c(N(C)c2ccccc2N(C)S(C)(=O)=O)n1 and test system Ba/F3 cells expressing L858R/T790M/C797S (EGFR-LTC), the measured GI50 is 500 to 2000 nM

---

I'd appreciate it if you could supply GI50 values for the items below.
# Tested on: Ba/F3 cells expressing L858R/T790M/C797S (EGFR-LTC)
# protocolText: Growth inhibition (GI50) of Ba/F3 cells expressing L858R/T790M/C797S (EGFR-LTC), Celltiter glo
# Format: cell-based
# studyConditions: Mus musculus, BaF3, 72 h

Summary for this compound, COc1nc(N2CCC(N3CCN(C)CC3)CC2)c(C)cc1Nc1ncc(Cl)c(Nc2cc(Cl)ccc2NS(C)(=O)=O)n1 : GI50 is 100 to 500 nM

Looking up CN1CCN(C2CCN(c3ccc(Nc4ncc(Br)c(Nc5cc6c(cc5NS(C)(=O)=O)CCO6)n4)c(Cl)c3)CC2)CC1 , I found its GI50 recorded as 1 to 25 nM

Looking up COc1cc(N2CCC(N3CCC(N(C)C)C3)CC2)c(C)cc1Nc1ncc(Cl)c(Nc2cc3c(cc2NS(C)(=O)=O)CCO3)n1 (stereo not drawn) , I see its GI50 listed as 25 to 100 nM

The compound listed as COc1cc(N2CCC(N3CCCN(C)CC3)CC2)c(C)cc1Nc1ncc(Cl)c(Nc2cc3c(cc2N(C)S(C)(=O)=O)CCO3)n1 shows GI50 equal to 25 to 100 nM

get_value(item= COc1cc(N2CCC(N3CCCN(C)CC3)CC2)c(Br)cc1Nc1ncc(Cl)c(Nc2cc3c(cc2NS(C)(=O)=O)CCO3)n1 , readout=GI50) returns 25 to 100 nM

Please fill in: GI50 reported for COc1cc(N2CCC(N3CCN(C)CC3)CC2)c(C)cc1Nc1ncc(Br)c(Nc2cc(Cl)ccc2-c2cnn[nH]2)n1 = 25 to 100 nM

---

# Tested on: Ba/F3 cells expressing L858R/T790M/C797S (EGFR-LTC)
# protocolText: Growth inhibition (GI50) of Ba/F3 cells expressing L858R/T790M/C797S (EGFR-LTC), Celltiter glo
# Type: cell-based
# studyConditions: Mus musculus, BaF3, 72 h
Please respond with reported GI50 for every item in the list.

The molecule listed as COc1ccc(NS(C)(=O)=O)c(Nc2nc(Nc3cc(C)c(N4CCC(N5CCN(C)CC5)CC4)cc3OC)ncc2Cl)c1 [Example 199] has a reported GI50 of 1 to 25 nM

For reference, reported GI50 for COc1nc(N2CCC(N3CCN(C)CC3)CC2)ccc1Nc1ncc(Cl)c(Nc2ccccc2CS(C)(=O)=O)n1 [Example 64] stands at 500 to 2000 nM

The recorded GI50 for COc1ccc(NS(C)(=O)=O)c(Nc2nc(Nc3cc(Cl)c(N4CCC(N5CCN(C)CC5)CC4)cc3Cl)ncc2Cl)c1 [Example 202] is 25 to 100 nM

GI50 reading for Cc1cc(Nc2ncc(Cl)c(Nc3cc(Cl)ccc3P(C)(C)=O)n2)c(Cl)cc1N1CCC(N2CCN(C)CC2)CC1 [Example 154] : 500 to 2000 nM

Measured GI50 of COc1cc(N2CCC(N3CCN(C)CC3)CC2)c(Cl)cc1Nc1ncc(Br)c(Nc2cc3c(cc2N(C)S(C)(=O)=O)CCO3)n1 [Example 252] : 1 to 25 nM

# GI50 (molecule: CN1CCN(C2CCN(c3ncc(Nc4ncc(Cl)c(Nc5cc6c(cc5NS(C)(=O)=O)CCO6)n4)cc3F)CC2)CC1 [Example 242] ) is 25 to 100 nM

Looking up COc1nc(N2CCC(N3CCN(C)CC3)CC2)c(C)cc1Nc1ncc(Cl)c(Nc2cc(Cl)c(Cl)cc2NS(C)(=O)=O)n1 [Example 100] , I found its GI50 recorded as 100 to 500 nM

GI50 measured on Cc1cc(Nc2ncc(Cl)c(Nc3cc4c(cc3N(C)S(C)(=O)=O)CCO4)n2)c(Cl)cc1N1CCC(N2CCN(C)CC2)CC1 [Example 263] = 100 to 500 nM

COc1ccc(N(C)S(C)(=O)=O)c(Nc2nc(Nc3cc(C)c(N4CCC(N5CCN(C)CC5)CC4)cc3OC)ncc2Cl)c1 [Example 260] yielded GI50 of 100 to 500 nM

Per the record, Cc1cc(Nc2ncc(Cl)c(Nc3ccc4c(c3)N(C)CC4)n2)c(Cl)cc1N1CCC(N2CCN(C)CC2)CC1 [Example 274] has GI50 of 500 to 2000 nM

Record CN1CCN(C2CCN(c3cc(Cl)c(Nc4ncc(Br)c(Nc5cc6c(cc5NS(C)(=O)=O)CCO6)n4)cc3Cl)CC2)CC1 [Example 217] . Reported GI50: 1 to 25 nM

Please fill in: GI50 reported for COc1cc(N2CCC(Nc3ccnn3C)CC2)c(C)cc1Nc1ncc(Br)c(Nc2ccc(F)cc2NS(C)(=O)=O)n1 [Example 41] = 500 to 2000 nM

Consider Cc1cc(Nc2ncc(Br)c(Nc3cc(Cl)ccc3NS(C)(=O)=O)n2)c(Cl)cc1N1CCC(N2CCCN(C)CC2)CC1 [Example 97] . Its measured GI50 is 1 to 25 nM

// GI50 lookup, molecule = COc1nc(N2CCC(N3CCN(C)CC3)CC2)c(C)cc1Nc1ncc(Cl)c(Nc2cc(Cl)ccc2NC(C)=O)n1 [Example 66] , result: 100 to 500 nM
